# Measured on: Aryl hydrocarbon receptor (Homo sapiens) (UniProt P35869)
# Sequence (P35869 whole entry, looked up): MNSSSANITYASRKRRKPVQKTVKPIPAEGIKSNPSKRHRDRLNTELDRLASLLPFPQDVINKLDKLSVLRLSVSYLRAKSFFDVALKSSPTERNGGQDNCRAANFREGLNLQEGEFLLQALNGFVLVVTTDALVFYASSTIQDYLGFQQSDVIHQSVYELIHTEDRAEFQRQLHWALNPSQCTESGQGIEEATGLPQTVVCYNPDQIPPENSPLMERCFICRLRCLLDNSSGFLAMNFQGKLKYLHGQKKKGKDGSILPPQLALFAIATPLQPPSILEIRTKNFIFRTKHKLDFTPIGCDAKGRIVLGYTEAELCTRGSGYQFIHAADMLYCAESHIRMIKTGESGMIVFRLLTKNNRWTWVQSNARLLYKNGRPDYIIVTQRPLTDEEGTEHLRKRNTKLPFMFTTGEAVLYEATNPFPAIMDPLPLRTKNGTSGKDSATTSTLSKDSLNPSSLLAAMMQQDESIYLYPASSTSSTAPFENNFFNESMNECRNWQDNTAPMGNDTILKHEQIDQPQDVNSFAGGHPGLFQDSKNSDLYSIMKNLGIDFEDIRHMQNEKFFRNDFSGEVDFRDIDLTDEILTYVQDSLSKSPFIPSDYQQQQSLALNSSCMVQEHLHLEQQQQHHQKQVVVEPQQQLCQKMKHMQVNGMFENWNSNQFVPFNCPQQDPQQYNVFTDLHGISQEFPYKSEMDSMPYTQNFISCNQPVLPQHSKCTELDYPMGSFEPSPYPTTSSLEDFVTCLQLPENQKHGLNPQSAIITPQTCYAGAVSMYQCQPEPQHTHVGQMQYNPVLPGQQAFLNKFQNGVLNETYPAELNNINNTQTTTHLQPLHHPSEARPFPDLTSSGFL
# Run description: qHTS assay to identify small molecule that activate the aryl hydrocarbon receptor (AhR) signaling pathway (AID 743085); also: nearly all actives have a fitted effect of over 15% in size;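 as to activation: HG2L7.5c1 human HepG2 liver cells with stably integrated DRE-driven firefly reporter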
# Condition context: HepG2 AhR-luc (HG2L7.5c1), luciferase, 24 h; series mostly up to 70.3 µM
Records with an inconclusive call do not appear. Calls of active or inactive are those of the source. Calls follow the shape of the dose curve; as a rule, active = well fitted activation curve with a large enough effect in the repeat runs; inconclusive = weak or mixed curves; inactive = no such curve, though single readings can be large or run the other way.
Select the matching outcome among 1 = active, -1 = inactive

Please indicate how the test categorized `FC(F)(F)c1cccc(C2=CCN(CCc3ccc4ccccc4c3)CC2)c1` .
-1

Please indicate how the test categorized `CCOC(=O)CC(=O)CCl` .
-1

Please indicate how the test categorized `FC(Cl)(Cl)Cl` .
-1

Please indicate how the test categorized `CC1(C)[C@H](C(=O)O[C@H](C#N)c2cccc(Oc3ccccc3)c2)[C@@H]1/C=C(\Cl)C(F)(F)F` .
-1

Please indicate how the test categorized `O=C(CBr)c1ccc(O)cc1` .
-1

Please indicate how the test categorized `N#CSCSC#N` .
-1

Please indicate how the test categorized ClC1=C(Cl)C2(Cl)C3C(Cl)C=CC3C1(Cl)C2(Cl)Cl (stereo not drawn) .
-1

Please indicate how the test categorized `CC(C)(C)OO` .
-1

Please indicate how the test categorized `Oc1c(Cl)c(Cl)cc(Cl)c1Cl` .
-1

Please indicate how the test categorized `S=C=Nc1cccc2ccccc12` .
1

Please indicate how the test categorized `CC1(C)CN=C(NN=C(/C=C/c2ccc(C(F)(F)F)cc2)/C=C/c2ccc(C(F)(F)F)cc2)NC1` .
1

Please indicate how the test categorized `COP(=O)(OC)SCn1c(=O)oc2cc(Cl)cnc21` .
1

Please indicate how the test categorized `CC[C@H]1C[C@@H]2C[C@H]3c4[nH]c5ccc(OC)cc5c4CCN(C2)[C@@H]13` .
1
